Target: UniProt P29274
Assay: Adenosine receptor binding assay, A2A ([3H]ZM241385 inhibition binding on HEK293 membranes)
Conditions: 1 nM [3H]ZM241385, 25° C., 1 h; Ki from IC50 by Cheng-Prusoff
A2A pKi reference

| molecule | A2A pKi |
| --- | --- |
| C[C@@H]1CN(c2c(-c3ccc(F)cc3)nc(N)n3c(=O)n(CCC(F)(F)F)nc23)C[C@H](C)O1 [Example 1-5] | 7.3 |
| CCCn1nc2c(N3C[C@@H](C)O[C@@H](C)C3)c(-c3ccc(F)cc3)nc(N)n2c1=O [Example 1-6] | 6.9 |
| Cc1ccc(Cn2nc3c(-c4cc(C)c5ncoc5c4)c(-c4ccc(F)cc4)nc(N)n3c2=O)nc1 [Example 4-3] | 9.8 |
| C[C@@H]1CN(c2c(-c3ccccc3)nc(N)n3c(=O)n(Cc4ccc(F)cn4)nc23)C[C@H](C)O1 [Example 1-14] | 7.9 |
| Cc1ocnc1Cn1nc2c(-c3cc(C)c4[nH]ncc4c3)c(-c3ccccc3)nc(N)n2c1=O [Example 4-9] | 10.1 |
| Cc1cc(-c2c(-c3ccc(F)cc3)nc(N)n3c(=O)n(CCC(F)(F)F)nc23)cc2ocnc12 [Example 4-1] | 9.3 |
| COc1ncccc1Cn1nc2c(N3C[C@@H](C)O[C@@H](C)C3)c(-c3ccccc3)nc(N)n2c1=O [Example 1-15] | 8.4 |
| C[C@@H]1CN(c2c(-c3ccccc3)nc(N)n3c(=O)n(C[C@@H]4COCCN4)nc23)C[C@H](C)O1 [Example 1-11] | 6.7 |
| C[C@@H]1CN(c2c(-c3ccccc3)nc(N)n3c(=O)n(Cc4cccnn4)nc23)C[C@H](C)O1 [Example 1-16] | 7.2 |
| C[C@@H]1CC(c2c(-c3ccccc3)nc(N)n3c(=O)n(CCC(F)(F)F)nc23)=C[C@H](C)O1 (relative stereo) [Example 2-1] | 8.6 |
| Cc1nc(Cn2nc3c(-c4cc(C)c5ncoc5c4)c(-c4ccc(F)cc4)nc(N)n3c2=O)c(C)o1 [Example 4-7] | 9.9 |
| C[C@@H]1CN(c2c(-c3ccccc3)nc(N)n3c(=O)n(C[C@H]4COCCN4C)nc23)C[C@H](C)O1 [Example 1-12] | 6.9 |
| C[C@@H]1CN(c2c(-c3ccccc3)nc(N)n3c(=O)n(C[C@@H]4COCCN4C)nc23)C[C@H](C)O1 [Example 1-13] | 7.1 |
| Cc1ocnc1Cn1nc2c(-c3cc(Cl)c4[nH]ncc4c3)c(-c3ccccc3)nc(N)n2c1=O [Example 4-11] | 9.8 |
| Cc1ocnc1Cn1nc2c(-c3cc(C)c4[nH]ncc4c3)c(-c3ccc(F)cc3)nc(N)n2c1=O [Example 4-8] | 9.6 |

---

Target: human adenosine A2A receptor (Homo sapiens (Human))
Sequence (P29274 whole entry): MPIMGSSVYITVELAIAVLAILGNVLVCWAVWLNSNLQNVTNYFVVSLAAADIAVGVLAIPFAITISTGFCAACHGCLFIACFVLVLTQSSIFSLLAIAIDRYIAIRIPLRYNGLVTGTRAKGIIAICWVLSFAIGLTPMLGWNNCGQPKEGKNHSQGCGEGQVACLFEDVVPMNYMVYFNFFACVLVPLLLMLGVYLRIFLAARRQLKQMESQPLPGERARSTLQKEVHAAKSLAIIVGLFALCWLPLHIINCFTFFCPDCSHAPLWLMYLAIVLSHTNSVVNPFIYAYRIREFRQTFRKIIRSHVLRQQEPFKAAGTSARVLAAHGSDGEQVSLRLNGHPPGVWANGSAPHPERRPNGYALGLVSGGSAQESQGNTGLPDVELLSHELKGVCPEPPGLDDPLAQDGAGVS
Assay: Adenosine receptor binding assay, A2A ([3H]ZM241385 inhibition binding on HEK293 membranes)
Conditions: 1 nM [3H]ZM241385, 25° C., 1 h; Ki from IC50 by Cheng-Prusoff
measured.property: A2A pKi

| compound | measured.value |
| --- | --- |
| C[C@@H]1CN(c2c(-c3ccccc3)nc(N)n3c(=O)n(C[C@H]4COCCN4)nc23)C[C@H](C)O1 [Example 1-10] | 6.9 |
| Cc1ocnc1Cn1nc2c(-c3cc(C)c4[nH]ccc4c3)c(-c3ccccc3)nc(N)n2c1=O [Example 4-12] | 9.3 |
| C[C@@H]1CN(c2c(-c3ccccc3)nc(N)n3c(=O)n(CCc4ccccc4)nc23)C[C@H](C)O1 [Example 1-17] | 7.2 |
| [2H]c1c([2H])c([2H])c(-c2nc(N)n3c(=O)n(Cc4ncoc4C)nc3c2-c2cc(C)c3[nH]ncc3c2)c([2H])c1[2H] [Example 4-10] | 10.0 |
| C[C@@H]1CC(c2c(-c3ccccc3)nc(N)n3c(=O)n(CCC(F)(F)F)nc23)C[C@H](C)O1 (some centres unmarked) [Example 2-2] | 7.4 |

---

Molecular target: human CB1 receptor (Homo sapiens (Human))
Sequence (P21554 whole entry): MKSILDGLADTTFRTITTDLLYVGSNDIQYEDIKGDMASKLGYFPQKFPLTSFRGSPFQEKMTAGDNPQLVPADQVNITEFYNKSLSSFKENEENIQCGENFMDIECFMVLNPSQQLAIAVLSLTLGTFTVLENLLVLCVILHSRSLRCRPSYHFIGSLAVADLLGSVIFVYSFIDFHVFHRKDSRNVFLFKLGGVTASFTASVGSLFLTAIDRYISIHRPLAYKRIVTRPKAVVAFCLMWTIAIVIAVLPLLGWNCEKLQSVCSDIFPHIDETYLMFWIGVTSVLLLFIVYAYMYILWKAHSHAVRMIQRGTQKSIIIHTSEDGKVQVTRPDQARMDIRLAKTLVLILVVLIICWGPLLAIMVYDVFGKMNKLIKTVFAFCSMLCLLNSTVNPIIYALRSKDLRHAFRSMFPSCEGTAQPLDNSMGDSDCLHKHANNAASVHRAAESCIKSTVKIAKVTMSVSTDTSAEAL
Test: CB1 receptor antagonism, agonist-induced cAMP modulation (HTRF) in transfected CHO cells
Details: inhibition of control response to 3 nM CP 55940, cAMP HTRF, read-out: Antag IC50
pIC50: −log10 of the molar value.
For each record, check the reported pIC50: if it is below 5 write t, else write f.

| compound.string | tested.on | qualitative.label |
| --- | --- | --- |
| Cc1cc(-c2c(-c3ccccc3)nc(N)n3c(=O)n(Cc4ccc(F)cn4)nc23)cc2nc[nH]c12 | human CB1 receptor (Homo sapiens (Human)) | t |
| C[C@@H]1CN(c2c(-c3ccccc3)nc(N)n3c(=O)n(C[C@H]4CCCO4)nc23)C[C@H](C)O1 | human CB1 receptor (Homo sapiens (Human)) | t |
| C[C@@H]1CN(c2c(-c3ccccc3)nc(N)n3c(=O)n(Cc4ccc(F)cn4)nc23)C[C@H](C)O1 | human CB1 receptor (Homo sapiens (Human)) | f |
| Cc1ocnc1Cn1nc2c(-c3cc(C)c4ncoc4c3)c(-c3ccccc3)nc(N)n2c1=O | human CB1 receptor (Homo sapiens (Human)) | t |
| Cc1cc(-c2c(-c3ccc(F)cc3)nc(N)n3c(=O)n(CCC(F)(F)F)nc23)cc2ocnc12 | human CB1 receptor (Homo sapiens (Human)) | f |
| Cc1ocnc1Cn1nc2c(-c3cc(Cl)c4[nH]ncc4c3)c(-c3ccccc3)nc(N)n2c1=O | human CB1 receptor (Homo sapiens (Human)) | f |
| C[C@@H]1CN(c2c(-c3ccccc3)nc(N)n3c(=O)n(CCC(F)(F)F)nc23)C[C@H](C)O1 | human CB1 receptor (Homo sapiens (Human)) | t |

---

Target: UniProt:P29274
Test: Adenosine receptor binding assay, A2A ([3H]ZM241385 inhibition binding on HEK293 membranes)
Details: 1 nM [3H]ZM241385, 25° C., 1 h; Ki from IC50 by Cheng-Prusoff
A2A pKi reference
measured.property: A2A pKi

| compound.string | tested.on | measured.value |
| --- | --- | --- |
| C[C@@H]1CN(c2c(-c3ccccc3)nc(N)n3c(=O)n(CCC(F)(F)F)nc23)C[C@H](C)O1 | UniProt:P29274 | 8.3 |
| C[C@@H]1CN(c2c(-c3ccccc3)nc(N)n3c(=O)n(CCC(F)F)nc23)C[C@H](C)O1 | UniProt:P29274 | 7.1 |
| C[C@@H]1CN(c2c(-c3ccccc3)nc(N)n3c(=O)n(CCN4CCCCC4)nc23)C[C@H](C)O1 | UniProt:P29274 | 6.7 |
| Cc1cc(-c2c(-c3ccccc3)nc(N)n3c(=O)n(Cc4ccc(F)cn4)nc23)cc2nc[nH]c12 | UniProt:P29274 | 9.0 |

---

Target: human adenosine A1 receptor (Homo sapiens (Human))
Sequence (P30542 whole entry): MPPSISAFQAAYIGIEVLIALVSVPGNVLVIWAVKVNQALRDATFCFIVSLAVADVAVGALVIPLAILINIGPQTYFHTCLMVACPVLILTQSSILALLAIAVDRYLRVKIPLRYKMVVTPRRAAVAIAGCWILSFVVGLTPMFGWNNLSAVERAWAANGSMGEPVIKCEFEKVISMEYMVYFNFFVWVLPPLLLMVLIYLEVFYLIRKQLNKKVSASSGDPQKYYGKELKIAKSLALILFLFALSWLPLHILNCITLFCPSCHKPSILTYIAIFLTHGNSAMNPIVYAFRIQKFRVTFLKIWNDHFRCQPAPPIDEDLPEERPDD
Experiment: Adenosine receptor binding assay, A1 ([3H]DPCPX inhibition binding on membranes)
Conditions: 1 nM [3H]DPCPX, 25° C., 1 h; Ki from IC50 by Cheng-Prusoff

| compound.string | relation.qualifier | A1 pKi |
| --- | --- | --- |
| C[C@@H]1CN(c2c(-c3ccccc3)nc(N)n3c(=O)n(C[C@H]4COCCN4C)nc23)C[C@H](C)O1 | < | 5.4 |
| C[C@@H]1CN(c2c(-c3ccccc3)nc(N)n3c(=O)n(CCN4CCCCC4)nc23)C[C@H](C)O1 | < | 5.5 |
| C[C@@H]1CN(c2c(-c3ccccc3)nc(N)n3c(=O)n(Cc4cccnn4)nc23)C[C@H](C)O1 | = | 6.1 |
| [2H]c1c([2H])c([2H])c(-c2nc(N)n3c(=O)n(Cc4ncoc4C)nc3c2-c2cc(C)c3[nH]ncc3c2)c([2H])c1[2H] | = | 8.7 |

---

Molecular target: UniProtKB P21554
Experiment: CB1 receptor antagonism, agonist-induced cAMP modulation (HTRF) in transfected CHO cells
Conditions: inhibition of control response to 3 nM CP 55940, cAMP HTRF, read-out: Antag IC50

| compound | tested.on | relation.qualifier | IC50, µM |
| --- | --- | --- | --- |
| Cc1cc(-c2c(-c3ccccc3)nc(N)n3c(=O)n(Cc4ccc(F)cn4)nc23)cc(C)c1O [Example 3-1] | UniProtKB P21554 | > | 100 |
| Cc1ocnc1Cn1nc2c(-c3cc(C)c4[nH]ccc4c3)c(-c3ccccc3)nc(N)n2c1=O [Example 4-12] | UniProtKB P21554 | = | 22.5 |
| C[C@@H]1CC(c2c(-c3ccccc3)nc(N)n3c(=O)n(CCC(F)(F)F)nc23)=C[C@H](C)O1 (relative stereo) [Example 2-1] | UniProtKB P21554 | = | 72.2 |
| Cc1ocnc1Cn1nc2c(-c3cc(C)c4[nH]ncc4c3)c(-c3ccccc3)nc(N)n2c1=O [Example 4-9] | UniProtKB P21554 | = | 15.5 |
| Cc1cc(-c2c(-c3ccccc3)nc(N)n3c(=O)n(Cc4ccc(F)cn4)nc23)cc2cn[nH]c12 [Example 4-4] | UniProtKB P21554 | = | 1.3 |
